Answer each item with its documented MHET released.
# assay_procedure: MHET released, HPLC; higher = more MHET released; extreme values may be limits of the assay
# experimental_conditions: PET substrate: aFilm; 60 °C; pH 9.5; 24 h
# output: number + unit

Problem: Consider the sequence shown here: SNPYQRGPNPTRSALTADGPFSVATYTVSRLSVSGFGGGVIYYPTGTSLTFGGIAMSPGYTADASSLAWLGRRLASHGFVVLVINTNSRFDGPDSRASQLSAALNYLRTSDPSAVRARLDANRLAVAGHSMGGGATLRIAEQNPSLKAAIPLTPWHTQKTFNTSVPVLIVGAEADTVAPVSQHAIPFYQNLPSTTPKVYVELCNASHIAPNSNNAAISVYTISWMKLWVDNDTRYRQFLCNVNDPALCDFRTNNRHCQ [LCC-ICCG DAQI] What is its recorded MHET released?
Result: 2.09 mM

Problem: Okay, and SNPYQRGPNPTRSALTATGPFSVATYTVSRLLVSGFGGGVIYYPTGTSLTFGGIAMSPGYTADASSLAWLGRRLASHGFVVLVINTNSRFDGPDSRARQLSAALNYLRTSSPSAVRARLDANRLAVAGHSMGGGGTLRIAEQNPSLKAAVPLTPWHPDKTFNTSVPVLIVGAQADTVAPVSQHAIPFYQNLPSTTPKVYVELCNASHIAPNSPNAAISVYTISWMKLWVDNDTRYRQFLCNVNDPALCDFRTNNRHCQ [LCC-ICCG I6M] ?
Result: 1.14 mM

Problem: Let us now turn to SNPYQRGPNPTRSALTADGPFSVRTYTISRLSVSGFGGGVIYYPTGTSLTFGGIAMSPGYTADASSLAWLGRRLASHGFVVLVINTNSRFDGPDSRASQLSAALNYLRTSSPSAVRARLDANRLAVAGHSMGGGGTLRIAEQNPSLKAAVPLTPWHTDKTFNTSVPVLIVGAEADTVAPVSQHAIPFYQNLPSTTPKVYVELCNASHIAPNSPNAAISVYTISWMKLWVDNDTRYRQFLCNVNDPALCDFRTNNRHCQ [LCC-ICCG RIP]
Result: 1.34 mM

Problem: Another sequence: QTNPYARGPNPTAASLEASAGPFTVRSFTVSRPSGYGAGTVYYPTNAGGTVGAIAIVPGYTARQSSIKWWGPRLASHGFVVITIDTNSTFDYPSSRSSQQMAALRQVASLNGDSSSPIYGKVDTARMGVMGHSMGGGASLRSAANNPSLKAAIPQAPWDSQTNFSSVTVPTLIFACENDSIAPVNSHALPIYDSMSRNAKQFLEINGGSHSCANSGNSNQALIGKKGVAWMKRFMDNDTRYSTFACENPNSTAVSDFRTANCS [DuraPETase]
Result: 0.152 mM

* * *

# assay_procedure: PET hydrolysis product formed (TPA+MHET+BHET, UV-Vis) per mg enzyme (mmol/mg enzyme); higher = more PET depolymerisation activity; extreme values may be limits of the assay
# experimental_conditions: PET substrate: aFilm; 70 °C; pH 4.5; 2 h
metric_name: PET hydrolysis product formed
Format: numeric value only, no unit, no commentary.

Problem: Which PET hydrolysis product formed value is on record for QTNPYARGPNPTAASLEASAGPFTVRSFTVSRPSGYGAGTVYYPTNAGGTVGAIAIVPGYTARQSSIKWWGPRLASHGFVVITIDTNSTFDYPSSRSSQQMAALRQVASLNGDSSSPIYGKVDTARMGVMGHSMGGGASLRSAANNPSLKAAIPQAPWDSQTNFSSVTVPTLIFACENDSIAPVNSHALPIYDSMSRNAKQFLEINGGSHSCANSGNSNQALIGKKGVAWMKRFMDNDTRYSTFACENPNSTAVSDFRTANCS [DuraPETase] ?
Result: 0

* * *

# assay_procedure: MHET released, HPLC; higher = more MHET released; extreme values may be limits of the assay
# experimental_conditions: PET substrate: cryPow; 70 °C; pH 4.5; 24 h
Field: MHET released. Provide a value for each of the sequences that follow.
Report only the number, with the unit mM understood.

Problem: Any idea what MHET released was measured for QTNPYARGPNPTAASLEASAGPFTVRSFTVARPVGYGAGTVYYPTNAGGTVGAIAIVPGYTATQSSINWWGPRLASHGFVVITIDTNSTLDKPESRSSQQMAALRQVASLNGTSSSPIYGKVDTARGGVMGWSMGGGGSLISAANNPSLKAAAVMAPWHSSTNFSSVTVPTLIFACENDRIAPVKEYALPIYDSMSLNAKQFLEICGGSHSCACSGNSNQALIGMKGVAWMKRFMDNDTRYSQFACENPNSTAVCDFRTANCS [HotPETase] ?
Result: 0

Problem: Note, next up: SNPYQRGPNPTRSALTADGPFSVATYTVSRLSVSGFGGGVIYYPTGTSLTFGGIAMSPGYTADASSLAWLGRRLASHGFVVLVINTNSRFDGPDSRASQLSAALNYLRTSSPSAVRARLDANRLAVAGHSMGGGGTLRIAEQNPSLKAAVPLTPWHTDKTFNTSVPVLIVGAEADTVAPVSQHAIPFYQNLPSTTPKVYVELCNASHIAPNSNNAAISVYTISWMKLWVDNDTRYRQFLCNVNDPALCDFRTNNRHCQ [LCC-ICCG]
Result: 0

* * *

# assay_procedure: MHET released, HPLC; higher = more MHET released; extreme values may be limits of the assay
# experimental_conditions: PET substrate: aFilm; 60 °C; pH 7.5; 24 h
Would you kindly list MHET released for each of these sequences?
Value expressed in mM; do not type the unit.

Problem: Quick one: MHET released for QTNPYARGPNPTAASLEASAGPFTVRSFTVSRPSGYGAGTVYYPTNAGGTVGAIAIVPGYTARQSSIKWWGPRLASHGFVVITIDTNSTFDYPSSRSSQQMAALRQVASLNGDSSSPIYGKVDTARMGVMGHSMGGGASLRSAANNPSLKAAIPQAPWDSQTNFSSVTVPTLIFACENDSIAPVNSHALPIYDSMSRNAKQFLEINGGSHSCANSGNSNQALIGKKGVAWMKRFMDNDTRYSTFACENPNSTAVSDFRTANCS [DuraPETase] ?
Result: 0.182

Problem: Item: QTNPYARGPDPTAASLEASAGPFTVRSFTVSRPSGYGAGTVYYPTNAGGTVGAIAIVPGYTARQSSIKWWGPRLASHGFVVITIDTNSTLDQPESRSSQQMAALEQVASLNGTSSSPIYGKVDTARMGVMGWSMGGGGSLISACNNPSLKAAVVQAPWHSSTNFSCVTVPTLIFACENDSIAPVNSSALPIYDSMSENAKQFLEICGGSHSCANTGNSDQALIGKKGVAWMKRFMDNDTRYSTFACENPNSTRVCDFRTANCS [Z1-PETase]
Result: 1.88

Problem: Next sequence up: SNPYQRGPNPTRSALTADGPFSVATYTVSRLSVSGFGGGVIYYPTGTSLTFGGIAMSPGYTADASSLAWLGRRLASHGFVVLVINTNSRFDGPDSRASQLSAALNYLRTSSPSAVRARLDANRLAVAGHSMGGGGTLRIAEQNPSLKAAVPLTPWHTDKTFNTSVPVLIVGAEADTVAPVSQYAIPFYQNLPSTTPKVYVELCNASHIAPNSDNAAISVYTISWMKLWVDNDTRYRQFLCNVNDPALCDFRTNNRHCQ [LCC-A2]
Result: 6.36

* * *

# assay_procedure: PET hydrolysis product formed (TPA+MHET+BHET, UV-Vis) per mg enzyme (mmol/mg enzyme); higher = more PET depolymerisation activity; extreme values may be limits of the assay
# experimental_conditions: PET substrate: aFilm; 60 °C; pH 5.5; 2 h
metric_name: PET hydrolysis product formed
The answer should be a number; do not append a unit.

Problem: For the sequence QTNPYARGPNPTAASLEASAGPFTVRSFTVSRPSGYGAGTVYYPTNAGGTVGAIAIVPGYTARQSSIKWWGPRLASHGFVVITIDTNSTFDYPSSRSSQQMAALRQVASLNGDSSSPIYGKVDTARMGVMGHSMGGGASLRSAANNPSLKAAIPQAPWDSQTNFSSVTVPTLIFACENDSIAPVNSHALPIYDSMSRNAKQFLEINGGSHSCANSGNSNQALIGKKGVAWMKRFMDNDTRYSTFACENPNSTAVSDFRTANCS [DuraPETase] , what PET hydrolysis product formed is on record?
Result: 0

* * *

# assay_procedure: BHET released, HPLC; higher = more BHET released; extreme values may be limits of the assay
# experimental_conditions: PET substrate: cryPow; 70 °C; pH 5.5; 24 h
metric_name: BHET released (mM)
// return numeric value only (unit: mM, not printed)

Problem: // BHET released lookup, key: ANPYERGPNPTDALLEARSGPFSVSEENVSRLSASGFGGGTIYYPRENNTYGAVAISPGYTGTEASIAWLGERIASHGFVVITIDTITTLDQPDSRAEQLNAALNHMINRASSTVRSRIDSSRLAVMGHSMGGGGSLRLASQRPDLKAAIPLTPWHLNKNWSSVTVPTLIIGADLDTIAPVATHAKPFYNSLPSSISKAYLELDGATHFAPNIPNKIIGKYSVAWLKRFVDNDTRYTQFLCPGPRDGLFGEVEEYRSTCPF [TfCut2]
Result: 0

Reference source for all entries: the supplement of paper PMC11196671
